Assay: antimalarial activity against Dd2 strain (AID 2302);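 also: 0% = DMSO untreated growth and 100% = chloroquine plus artemisinin killed control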
Conditions: P. falciparum Dd2 in RBCs, LDH growth readout, 72 h; at 2 µM; stronger effect = higher value
This section presents compounds with their documented growth inhibition values.
Form entry: value (%) — number only.

compound	growth inhibition / %
Fc1ccc(Nc2ccnc3cc(-c4ccc(CNCCN5CCOCC5)o4)ccc23)c(Cl)c1	99

Endpoint output: growth inhibition of CC1(C)N=C(N)N=C(N)N1OCCNCc1ccc(Cl)cc1 . Value?
-2

Try the compound COc1cc2c(C3CCN(CC4CCC(NC(=O)/C=C/c5ccc(Cl)c(Cl)c5)CC4)CC3)c[nH]c2cn1 (centres undefined)
100

Try the compound O=c1cc(NCCCNC2CCOc3c(Cl)cc(Cl)cc32)[nH]c2ccccc12 (centres undefined)
88

Try the compound C=Cc1sc(CNCCCNc2cc(=O)c3ccccc3[nH]2)c(C)c1Br
35

Try the compound Cc1ccc(S(=O)(=O)NC2CCN(CCNC(=O)Nc3cc(C)nc4ccccc34)C2)cc1 (centres undefined)
42

Try the compound COc1cc(CCN(C)Cc2ccc(OC)c(OC)c2)ccc1NC(=O)c1cccc2c(=O)c3cccc(F)c3[nH]c12
26

Reference source for all entries: PubChem BioAssay
